Recorded pIC50 values for a group of molecules are listed next.
Target: recombinant human tau 4R2N (Homo sapiens (Human), UniProt P10636)
Sequence (P10636 other isoform, or with tags, fused parts or gaps): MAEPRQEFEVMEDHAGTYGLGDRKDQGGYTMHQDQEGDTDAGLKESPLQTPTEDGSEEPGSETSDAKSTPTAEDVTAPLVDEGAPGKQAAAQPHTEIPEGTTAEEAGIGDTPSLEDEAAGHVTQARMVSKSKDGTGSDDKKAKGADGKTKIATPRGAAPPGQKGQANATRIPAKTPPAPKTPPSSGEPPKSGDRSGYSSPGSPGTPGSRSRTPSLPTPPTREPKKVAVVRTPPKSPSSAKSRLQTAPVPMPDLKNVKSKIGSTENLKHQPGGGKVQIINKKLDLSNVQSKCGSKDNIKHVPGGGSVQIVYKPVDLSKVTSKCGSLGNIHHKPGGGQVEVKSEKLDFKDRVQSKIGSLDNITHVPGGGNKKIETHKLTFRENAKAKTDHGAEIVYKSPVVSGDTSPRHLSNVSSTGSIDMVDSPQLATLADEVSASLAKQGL
Experiment: AlphaLisa Assay (ALA), primary screen for inhibition of tau oligomer formation
Settings: tau target 300 nM, Tris-HCl pH 7.4, 4 hours room temperature, compound 0.098 uM-50 uM
Text: Bacterial recombinant human tau 4R2N (the largest isoform of tau in the central nervous system, 441 amino acids in length, Seq ID 1) constructs with either 6×-His or StrepII N-terminal epitope tags were purified from bacterial lysate using denaturing conditions to prepare tau in its monomeric form. ALA Assay: AlphaLisa Assay (ALA) was used as a primary screen for identifying compounds that inhibit tau oligomer formation. […]
pIC50 here: minus log base 10 of the concentration, concentration in moles per litre.

Below, each entry is followed by its recorded pIC50 result.
INSERT INTO measurements (record_smiles, reported) VALUES
  ('CC(=O)CCc1oc2cc(-c3ccncc3)ccc2c1-c1ccc(C)o1', 5.47),
  ('Cc1ccc(-c2c(CCC(=O)N3CCC(O)CC3)oc3ccc(Br)cc23)o1', 5.24);

Turning now to a further molecule:
Query: What does the data say about its pIC50? Entry: COc1cc(-c2ccc3oc(CCC(C)=O)c(-c4ccc(Cl)s4)c3c2)ccn1
Response: 4.68
